src = ChEMBL document CHEMBL5241126

assayed.system: Glutamate receptor ionotropic, NMDA 2B (Homo sapiens, UniProt Q05586+Q13224)
Sequence (Q13224 whole entry, one chain of several): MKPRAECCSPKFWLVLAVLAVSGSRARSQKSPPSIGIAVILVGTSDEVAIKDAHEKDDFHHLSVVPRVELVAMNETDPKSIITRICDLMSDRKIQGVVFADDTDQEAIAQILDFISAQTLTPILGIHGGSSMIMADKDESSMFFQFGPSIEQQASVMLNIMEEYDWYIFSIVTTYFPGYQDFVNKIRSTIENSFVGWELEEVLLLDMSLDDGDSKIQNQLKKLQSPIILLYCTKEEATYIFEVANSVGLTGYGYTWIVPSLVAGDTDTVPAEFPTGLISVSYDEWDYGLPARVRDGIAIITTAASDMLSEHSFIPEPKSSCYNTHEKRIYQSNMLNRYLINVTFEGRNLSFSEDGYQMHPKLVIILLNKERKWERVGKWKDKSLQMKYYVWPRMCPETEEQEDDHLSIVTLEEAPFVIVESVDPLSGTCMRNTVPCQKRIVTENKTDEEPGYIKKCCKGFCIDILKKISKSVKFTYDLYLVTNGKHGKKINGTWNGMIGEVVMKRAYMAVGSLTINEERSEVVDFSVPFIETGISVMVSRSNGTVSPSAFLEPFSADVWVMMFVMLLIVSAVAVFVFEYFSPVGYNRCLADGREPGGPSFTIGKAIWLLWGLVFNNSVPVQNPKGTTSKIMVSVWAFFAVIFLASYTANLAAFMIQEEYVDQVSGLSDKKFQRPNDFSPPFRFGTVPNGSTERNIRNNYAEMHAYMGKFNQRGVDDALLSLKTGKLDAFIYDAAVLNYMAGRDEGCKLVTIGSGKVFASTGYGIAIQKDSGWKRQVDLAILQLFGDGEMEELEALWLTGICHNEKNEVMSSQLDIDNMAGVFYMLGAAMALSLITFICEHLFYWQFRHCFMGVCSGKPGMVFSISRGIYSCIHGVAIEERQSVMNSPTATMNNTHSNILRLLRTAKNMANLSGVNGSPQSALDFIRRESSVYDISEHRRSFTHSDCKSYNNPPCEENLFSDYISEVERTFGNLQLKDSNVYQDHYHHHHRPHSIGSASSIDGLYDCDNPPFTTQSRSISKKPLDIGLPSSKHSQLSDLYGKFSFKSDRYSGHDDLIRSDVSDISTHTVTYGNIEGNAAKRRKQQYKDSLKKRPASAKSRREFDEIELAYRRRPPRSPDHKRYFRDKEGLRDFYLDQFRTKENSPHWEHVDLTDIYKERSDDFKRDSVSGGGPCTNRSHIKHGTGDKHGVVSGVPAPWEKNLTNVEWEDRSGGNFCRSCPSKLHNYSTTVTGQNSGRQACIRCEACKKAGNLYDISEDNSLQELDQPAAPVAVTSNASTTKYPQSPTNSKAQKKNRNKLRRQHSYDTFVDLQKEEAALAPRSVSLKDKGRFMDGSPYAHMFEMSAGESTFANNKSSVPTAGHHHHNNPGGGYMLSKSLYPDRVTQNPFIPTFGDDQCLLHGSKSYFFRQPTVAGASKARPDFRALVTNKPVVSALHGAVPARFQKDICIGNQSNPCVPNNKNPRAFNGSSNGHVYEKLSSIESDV
test.protocol: Positive allosteric modulator activity at GluN2B NMDA receptor (unknown origin) expressed in CHO cells co-expressing GluN1a in the presence of L-glutamate and glycine by Ca2+ influx assay
measurement.label: EC50

>>> result_value("Cc1cc(Cn2nc(Br)cc2Cl)cc(=O)n1C[C@H]1C[C@@H]1C#N")
"> 30 µM"

---

Below, each entry is listed with its recorded chromatographic logD.
test.protocol: 1-Octanol/aqueous buffer partition coefficient, logD of the compound at pH 7.4 by chromatographic method based UV-visible detector
Type: physicochemical
measurement.label: chromatographic logD

>>> result_value("Cc1cc(Cn2nc(C(F)(F)F)cc2Cl)cc(=O)n1C[C@H]1C[C@@H]1C#N")
1.8
>>> result_value("Cc1cccc(Cc2cc(C)n(C[C@H]3C[C@@H]3C#N)c(=O)c2)c1")
2.4
>>> result_value("Cc1cc(Cn2nc(Cl)cc2Cl)cc(=O)n1C[C@H]1C[C@@H]1C#N")
1.6
>>> result_value("CCN(Cc1ccn(CC2CC2)c(=O)c1)c1ccc(F)cc1")
2.8
>>> result_value("CCc1cc(CN(CC)c2ccc(F)cc2)cc(=O)n1CC1CC1")
3.6
>>> result_value("CCN(Cc1cc(=O)n(CC2CC2)c(C)n1)c1ccc(F)cc1")
2.9
>>> result_value("Cc1cc(Cc2cccc(Cl)c2)cc(=O)n1C[C@H]1C[C@@H]1C#N")
2.3
>>> result_value("CCN(Cc1cc(C)n(CC2CCC2)c(=O)c1)c1ccc(F)cc1")
3.6
>>> result_value("Cc1cc(Cc2cccc(Br)c2)cc(=O)n1C[C@H]1C[C@@H]1C#N")
2.5
>>> result_value("Cc1cc(Cn2nc(C(F)F)cc2Cl)cc(=O)n1C[C@H]1C[C@@H]1C#N")
1.4
>>> result_value("Cc1cc(Cn2nc(Br)cc2Cl)cc(=O)n1C[C@H]1C[C@@H]1C#N")
1.6
>>> result_value("CCN(Cc1cc(C)n(C[C@H]2C[C@@H]2C#N)c(=O)c1)c1ccc(F)cc1")
2.4
>>> result_value("CCCc1cc(CN(CC)c2ccc(F)cc2)cc(=O)n1CC1CC1")
4
>>> result_value("CCN(Cc1cc(C)n(Cc2ccccc2)c(=O)c1)c1ccc(F)cc1")
3.5
>>> result_value("CCN(Cc1cc(C)n(C[C@@H]2C[C@H]2C#N)c(=O)c1)c1ccc(F)cc1")
2.4
>>> result_value("CCN(Cc1cc(C)n(CC2(C#N)CC2)c(=O)c1)c1ccc(F)cc1")
2.5
>>> result_value("CCN(Cc1cc(C)n(CCCC#N)c(=O)c1)c1ccc(F)cc1")
2.4
>>> result_value("CCN(Cc1cc(C)n(CC2CC2)c(=O)c1)c1ccc(F)cc1")
3.2
